assayed_target: Neuronal acetylcholine receptor subunit alpha-7 (Homo sapiens, UniProt P36544)
Sequence (P36544 whole entry): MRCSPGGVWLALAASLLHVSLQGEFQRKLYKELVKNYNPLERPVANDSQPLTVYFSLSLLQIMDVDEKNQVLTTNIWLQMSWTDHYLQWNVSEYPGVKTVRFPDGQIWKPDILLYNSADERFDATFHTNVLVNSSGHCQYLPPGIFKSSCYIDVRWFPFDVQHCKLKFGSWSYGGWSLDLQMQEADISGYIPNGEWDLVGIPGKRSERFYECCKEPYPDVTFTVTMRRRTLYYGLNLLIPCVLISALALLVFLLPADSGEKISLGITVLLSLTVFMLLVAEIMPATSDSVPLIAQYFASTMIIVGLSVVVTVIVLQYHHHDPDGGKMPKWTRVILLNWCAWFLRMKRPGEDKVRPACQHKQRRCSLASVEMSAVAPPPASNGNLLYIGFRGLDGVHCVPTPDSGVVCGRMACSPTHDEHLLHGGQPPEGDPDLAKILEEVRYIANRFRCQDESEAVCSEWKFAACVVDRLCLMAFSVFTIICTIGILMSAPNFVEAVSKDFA
experiment_notes: Binding affinity towards human nicotinic acetylcholine receptor alpha 7 expressed in GH4C1 cell using [3H]methyllycaconitine
Assay type: cell-based, GH4-C1

{"compound": "O=C(N[C@H]1CN2CCC1CC2)c1ccc(-c2ccccn2)s1", "assayed_target": "Neuronal acetylcholine receptor subunit alpha-7 (Homo sapiens, UniProt P36544)", "Ki (nM)": 1.3}
{"compound": "O=C(NC1CN2CCC1CC2)c1cc(-c2ccccc2)sn1 (centres undefined)", "assayed_target": "Neuronal acetylcholine receptor subunit alpha-7 (Homo sapiens, UniProt P36544)", "Ki (nM)": 4.1}
{"compound": "O=C(N[C@H]1CN2CCC1CC2)c1ccc(-c2ccccc2)s1 (racemic)", "assayed_target": "Neuronal acetylcholine receptor subunit alpha-7 (Homo sapiens, UniProt P36544)", "Ki (nM)": 3.4}
{"compound": "CC(=O)O.O=C(N[C@H]1CN2CCC1CC2)c1ccc(-c2ccccc2)s1", "assayed_target": "Neuronal acetylcholine receptor subunit alpha-7 (Homo sapiens, UniProt P36544)", "Ki (nM)": 1.8}
{"compound": "O=C(NC1CN2CCC1CC2)c1ccc(-c2ccccn2)s1 (centres undefined)", "assayed_target": "Neuronal acetylcholine receptor subunit alpha-7 (Homo sapiens, UniProt P36544)", "Ki (nM)": 6.9}
{"compound": "O=C(NC1CN2CCC1CC2)c1csc(-c2ccccc2)c1 (centres undefined)", "assayed_target": "Neuronal acetylcholine receptor subunit alpha-7 (Homo sapiens, UniProt P36544)", "Ki (nM)": 16.7}
{"compound": "CCN1C[C@]2(COC(=O)c3ccccc3N3C(=O)C[C@H](C)C3=O)CC[C@H](OC)[C@@]34[C@@H]5C[C@H]6[C@H](OC)[C@@H]5[C@](O)(C[C@@H]6OC)[C@](O)([C@@H](OC)[C@H]23)[C@@H]14 [METHYLLYCACONITINE]", "assayed_target": "Neuronal acetylcholine receptor subunit alpha-7 (Homo sapiens, UniProt P36544)", "Ki (nM)": 7.3}
{"compound": "O=C(NC1CN2CCC1CC2)c1csc(-c2ccccc2)n1 (centres undefined)", "assayed_target": "Neuronal acetylcholine receptor subunit alpha-7 (Homo sapiens, UniProt P36544)", "Ki (nM)": 121}
{"compound": "O=C(N[C@@H]1CN2CCC1CC2)c1ccc(-c2ccccc2)s1", "assayed_target": "Neuronal acetylcholine receptor subunit alpha-7 (Homo sapiens, UniProt P36544)", "Ki (nM)": 26.9}
{"compound": "O=C(NC1CN2CCC1CC2)c1ccc(-c2ccccc2Cl)s1 (centres undefined)", "assayed_target": "Neuronal acetylcholine receptor subunit alpha-7 (Homo sapiens, UniProt P36544)", "Ki (nM)": 525}
{"compound": "O=C(NC1CN2CCC1CC2)c1ccc(-c2cccs2)s1 (centres undefined)", "assayed_target": "Neuronal acetylcholine receptor subunit alpha-7 (Homo sapiens, UniProt P36544)", "Ki (nM)": 1.1}
{"compound": "O=C(NC1CN2CCC1CC2)c1ccc(-c2ccccc2)s1 (centres undefined)", "assayed_target": "Neuronal acetylcholine receptor subunit alpha-7 (Homo sapiens, UniProt P36544)", "Ki (nM)": 3.4}
{"compound": "c1ccc(-c2cnc3c(c2)C[C@@]2(CN4CCC2CC4)O3)cc1", "assayed_target": "Neuronal acetylcholine receptor subunit alpha-7 (Homo sapiens, UniProt P36544)", "Ki (nM)": 3.1}
{"compound": "COc1ccccc1-c1ccc(C(=O)NC2CN3CCC2CC3)s1 (centres undefined)", "assayed_target": "Neuronal acetylcholine receptor subunit alpha-7 (Homo sapiens, UniProt P36544)", "Ki (nM)": 268}
